Taken from patent US12448369B2.

The reader will find reported Atrial EC25 values listed item by item below.
system: Porcine atria myofibrils (atrial myosin ATPase); test: Myofibril ATPase assay, porcine atria myofibrils; format: biochemical; details: porcine atria myofibrils; Y75 value (75% activity relative to no compound)

# molecule, subject_of_test, Atrial EC25 / µM
rows = [
    ("C[C@H](NC(=O)Cc1cc2c(OCC(F)F)nccc2[nH]c1=O)c1ccc(F)cc1F", "Porcine atria myofibrils (atrial myosin ATPase)", 0.71),
    ("Cc1c(CC(=O)N[C@H](C)c2ncc(F)cc2F)c(=O)[nH]c2ccnc(C(F)(F)F)c12 (single isomer, unassigned)", "Porcine atria myofibrils (atrial myosin ATPase)", 100.00),
    ("Cc1nccc2[nH]c(=O)c(CC(=O)N[C@H](C)c3ccc(C#N)cc3F)c(F)c12", "Porcine atria myofibrils (atrial myosin ATPase)", 1.99),
    ("Cc1nccc2[nH]c(=O)c(CC(=O)N[C@@H](CO)c3ccc(C#N)cc3F)c(C)c12 (single isomer, unassigned)", "Porcine atria myofibrils (atrial myosin ATPase)", 0.56),
    ("Cc1c(CC(=O)N[C@H](CO)c2ccc(F)cc2F)c(=O)[nH]c2ccc(C#N)nc12", "Porcine atria myofibrils (atrial myosin ATPase)", 30.20),
    ("COc1cccc([C@@H](C)NC(=O)Cc2c(C)c3c(C)nccc3[nH]c2=O)n1 (single isomer, unassigned)", "Porcine atria myofibrils (atrial myosin ATPase)", 100.00),
    ("Cc1nccc2[nH]c(=O)c([C@@H](C)C(=O)N[C@H](C)c3ccc(C#N)cc3F)c(C)c12 (single isomer, unassigned)", "Porcine atria myofibrils (atrial myosin ATPase)", 0.33),
]

---

molecular target: Porcine ventricle myofibrils (ventricular myosin ATPase) (Sus scrofa); construct: Myofibrils from porcine cardiac muscle was isolated from the left ventricle of Yucatan minipigs; tissue Exemplar Genetics; host or cells: left ventricle of Yucatan minipigs, myofibrils prepared in house; experiment: Myofibril ATPase assay, porcine ventricle myofibrils; type: biochemical, porcine (Yucatan minipigs); conditions: Y75 value (no ‡ mark); porcine ventricle myofibrils
Sequence (P79293 whole entry): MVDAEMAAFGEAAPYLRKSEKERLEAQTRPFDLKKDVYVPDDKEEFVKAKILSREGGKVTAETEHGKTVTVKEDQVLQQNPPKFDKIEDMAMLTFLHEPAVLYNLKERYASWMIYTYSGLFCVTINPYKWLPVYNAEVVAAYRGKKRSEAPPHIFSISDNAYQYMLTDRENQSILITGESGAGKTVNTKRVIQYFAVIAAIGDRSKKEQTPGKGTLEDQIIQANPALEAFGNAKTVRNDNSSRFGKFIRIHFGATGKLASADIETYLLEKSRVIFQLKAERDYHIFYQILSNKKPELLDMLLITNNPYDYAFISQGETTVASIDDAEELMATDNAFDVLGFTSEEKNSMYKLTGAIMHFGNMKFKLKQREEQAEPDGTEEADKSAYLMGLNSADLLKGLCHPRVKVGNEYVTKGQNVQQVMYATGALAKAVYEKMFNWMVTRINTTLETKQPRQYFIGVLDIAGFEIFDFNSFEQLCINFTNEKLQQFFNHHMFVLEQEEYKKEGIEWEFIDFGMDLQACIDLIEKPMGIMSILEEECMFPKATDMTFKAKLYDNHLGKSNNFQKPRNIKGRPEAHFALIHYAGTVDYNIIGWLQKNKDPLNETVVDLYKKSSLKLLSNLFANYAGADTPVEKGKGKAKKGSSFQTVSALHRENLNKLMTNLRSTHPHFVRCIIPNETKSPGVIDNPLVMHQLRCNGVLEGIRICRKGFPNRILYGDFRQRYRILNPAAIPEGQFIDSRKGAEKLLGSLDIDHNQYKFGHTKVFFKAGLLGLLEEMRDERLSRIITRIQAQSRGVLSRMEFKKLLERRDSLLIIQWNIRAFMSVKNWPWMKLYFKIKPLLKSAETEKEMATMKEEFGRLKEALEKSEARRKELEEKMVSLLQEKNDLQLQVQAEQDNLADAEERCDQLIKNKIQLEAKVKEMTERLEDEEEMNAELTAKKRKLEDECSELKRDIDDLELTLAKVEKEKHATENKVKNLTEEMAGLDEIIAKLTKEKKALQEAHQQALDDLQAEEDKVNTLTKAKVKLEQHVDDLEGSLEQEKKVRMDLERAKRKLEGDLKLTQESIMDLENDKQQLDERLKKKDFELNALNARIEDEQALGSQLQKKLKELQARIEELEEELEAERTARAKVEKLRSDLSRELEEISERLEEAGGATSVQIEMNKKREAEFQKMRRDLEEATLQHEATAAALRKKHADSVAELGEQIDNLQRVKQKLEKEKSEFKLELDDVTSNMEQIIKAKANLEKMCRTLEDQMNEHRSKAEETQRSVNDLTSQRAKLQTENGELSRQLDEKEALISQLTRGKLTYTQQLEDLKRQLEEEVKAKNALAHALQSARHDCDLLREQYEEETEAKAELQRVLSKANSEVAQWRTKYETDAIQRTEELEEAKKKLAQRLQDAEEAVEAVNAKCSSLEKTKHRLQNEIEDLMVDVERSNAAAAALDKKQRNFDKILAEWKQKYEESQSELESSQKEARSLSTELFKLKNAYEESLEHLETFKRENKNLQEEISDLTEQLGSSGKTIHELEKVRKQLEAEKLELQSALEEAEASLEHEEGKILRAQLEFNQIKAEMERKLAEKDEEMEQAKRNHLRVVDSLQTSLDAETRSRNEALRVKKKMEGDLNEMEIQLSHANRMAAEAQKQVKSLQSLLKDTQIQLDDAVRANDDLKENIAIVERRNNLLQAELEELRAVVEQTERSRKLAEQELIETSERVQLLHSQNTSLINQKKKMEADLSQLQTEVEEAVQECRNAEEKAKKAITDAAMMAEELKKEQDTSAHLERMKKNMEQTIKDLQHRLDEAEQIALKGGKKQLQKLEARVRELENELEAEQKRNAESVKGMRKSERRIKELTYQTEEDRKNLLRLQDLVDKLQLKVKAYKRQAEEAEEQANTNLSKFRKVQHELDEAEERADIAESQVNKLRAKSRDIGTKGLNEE
Criterion: Ventricular EC25 meeting or surpassing 7 µM. Met: Y. Not met: N.

# molecule, answer_label
rows = [
    ("C[C@H](NC(=O)Cc1cc2c(C#N)c(O)ccc2[nH]c1=O)c1ccc(F)cc1F", "Y"),
    ("Cc1c(CC(=O)N[C@@H](C)c2ccc(C#N)cn2)c(=O)[nH]c2ccc(F)cc12", "N"),
    ("C[C@@H](NC(=O)Cc1cc2cc(F)c(F)cc2[nH]c1=O)c1cnc(C#N)cn1", "Y"),
    ("Cc1c(CC(=O)N[C@@H](C)c2ccc(F)cc2F)c(=O)[nH]c2ccc(F)c(C(F)(F)F)c12", "N"),
    ("Cc1c(CC(=O)N[C@@H](C)c2ccc(C#N)cn2)c(=O)[nH]c2cc(F)c(F)cc12", "N"),
    ("Cc1c(CC(=O)N[C@@H](C)c2ccc(F)cc2F)c(=O)[nH]c2ccc(F)c(C3CC3)c12", "N"),
    ("C[C@H](NC(=O)Cc1c(C2CC2)c2cc(F)ccc2[nH]c1=O)c1ccc(C#N)cn1", "N"),
    ("C[C@@H](NC(=O)Cc1c(C#N)c2cc(F)ccc2[nH]c1=O)c1ncc(C#N)cc1F", "Y"),
    ("Cc1c(CC(=O)N[C@@H](C)c2ncc(C#N)cc2F)c(=O)[nH]c2ccc(F)c(C3CC3)c12", "N"),
    ("C[C@H](NC(=O)[C@@H](C)c1c(C(F)(F)F)c2cc(F)ccc2[nH]c1=O)c1ccc(F)cc1F (single isomer, unassigned) [compound 57]", "Y"),
    ("Cc1c(CC(=O)N[C@H]2COc3cc(C#N)cc(F)c32)c(=O)[nH]c2ccc(F)c(C#N)c12 (single isomer, unassigned)", "N"),
    ("Cc1c(CC(=O)N[C@@H](C)c2ncc(C3COC3)cn2)c(=O)[nH]c2ccc(F)c(F)c12 (single isomer, unassigned)", "N"),
    ("Cc1nc(C#N)ncc1[C@@H](C)NC(=O)Cc1cc2cc(F)c(F)cc2[nH]c1=O", "Y"),
    ("C[C@H](NC(=O)[C@@H](C)c1cc2c(Cl)c(O)ccc2[nH]c1=O)c1ccc(F)cc1F (single isomer, unassigned)", "Y"),
    ("Cc1c(CC(=O)N[C@@H](C)c2ccc(F)cc2F)c(=O)[nH]c2ccc(F)c(Br)c12", "N"),
    ("Cc1nc(C#N)cnc1[C@H](C)NC(=O)Cc1c(C)c2c(C#N)c(F)ccc2[nH]c1=O (single isomer, unassigned)", "N"),
    ("Cc1c(C(F)(F)C(=O)N[C@H](C)c2ncc(F)cc2F)c(=O)[nH]c2ccc(F)cc12 (single isomer, unassigned)", "N"),
    ("C[C@@H](NC(=O)C(F)(F)c1cc2c(F)c(F)ccc2[nH]c1=O)c1cc(C#N)ccn1 (single isomer, unassigned)", "Y"),
    ("Cc1c(CC(=O)N[C@@H](C)c2cnc(C#N)cn2)c(=O)[nH]c2cc(F)c(F)cc12", "N"),
    ("Cc1c(C2(C(=O)NC(C)c3cccc(C#N)n3)CC2)c(=O)[nH]c2ccc(F)cc12 (single isomer, unassigned)", "Y"),
    ("Cc1c(C2(C(=O)N[C@@H]3CCc4cc(C#N)cnc43)CC2)c(=O)[nH]c2ccc(F)cc12 (single isomer, unassigned)", "Y"),
    ("Cc1c(C(F)(F)C(=O)N[C@H](C)c2ncc(C#N)cn2)c(=O)[nH]c2cccc(C#N)c12 (single isomer, unassigned)", "N"),
    ("CC(NC(=O)C(F)(F)c1cc2cc(F)ccc2[nH]c1=O)c1cc(C#N)ccn1 (single isomer, unassigned)", "Y"),
    ("O=C(Cc1cc2cc(F)ccc2[nH]c1=O)N1CC[C@@H]2C[C@H]1c1ccccc12 (single isomer, unassigned)", "N"),
    ("Cc1c(C2(C(=O)N[C@@H](C)c3ncc(C#N)cn3)CC2)c(=O)[nH]c2ccc(F)cc12 (single isomer, unassigned)", "Y"),
    ("N#Cc1cnc2c(c1)OC[C@H]2NC(=O)Cc1cc2c(F)c(F)ccc2[nH]c1=O (single isomer, unassigned)", "N"),
    ("COc1ccc2[nH]c(=O)c(CC(=O)N[C@@H](C)c3ccc(F)cc3F)cc2c1C#N", "Y"),
]
